study_system: procaspase-6 (Homo sapiens, UniProt P55212)
Sequence (P55212 whole entry): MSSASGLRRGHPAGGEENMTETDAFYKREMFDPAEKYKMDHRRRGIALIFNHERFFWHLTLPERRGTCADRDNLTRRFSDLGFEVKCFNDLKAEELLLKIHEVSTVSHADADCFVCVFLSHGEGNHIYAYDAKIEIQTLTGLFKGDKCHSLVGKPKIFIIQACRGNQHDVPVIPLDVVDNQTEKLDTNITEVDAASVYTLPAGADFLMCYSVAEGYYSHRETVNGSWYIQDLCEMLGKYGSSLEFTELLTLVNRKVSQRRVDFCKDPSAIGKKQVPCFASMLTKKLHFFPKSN
assay_name: Executioner procaspase-6 activation assay (Ac-VEID-AFC fluorogenic substrate)
run_parameters: incubation with compound for 5 h at 37° C.; 100 nM procaspase
pEC50: −log10 of the molar value.
assay_metric: pEC50

# annotated cases, reported pEC50 shown
>>> test_value("O=C(Nc1cccc(-c2cccnc2)c1)c1cc2cccc(O)c2oc1=O")
"< 4.00"
>>> test_value("O=C(Nc1cccc(-c2ccc3c(c2)OCO3)c1)c1cc2cccc(OC(F)(F)F)c2oc1=O")
"< 4.00"
>>> test_value("N#Cc1ccccc1-c1cccc(NC(=O)c2cc3cccc(OC(F)(F)F)c3oc2=O)c1")
"< 4.00"
>>> test_value("O=C(Nc1cccc(-c2cn3ccccc3n2)c1)c1cc2ccc(O)c(O)c2oc1=O")
"< 4.00"
>>> test_value("O=C(Nc1cccc(-c2ccc3ccccc3c2)c1)c1cc2cccc(OC(F)(F)F)c2oc1=O")
"< 4.00"

Query: Hello, I am looking for reported pEC50 with procaspase-6 (Homo sapiens, UniProt P55212) for `N#Cc1ccc(-c2cccc(NC(=O)c3cc4cccc(O)c4oc3=O)c2)cc1F` . Could you help?
Result: < 4.00

Query: Hello, I am looking for reported pEC50 with procaspase-6 (Homo sapiens, UniProt P55212) for `O=C(Nc1cccc(-c2cnc3ccccc3c2)c1)c1cc2cccc(O)c2oc1=O` . Could you help?
Result: < 4.00

Query: Hello, I am looking for reported pEC50 with procaspase-6 (Homo sapiens, UniProt P55212) for `COc1cccc2cc(C(=O)Nc3cccc(-c4cn5ccccc5n4)c3)oc12` . Could you help?
Result: 4.30 to 5.00

Query: Hello, I am looking for reported pEC50 with procaspase-6 (Homo sapiens, UniProt P55212) for `COc1cncc(-c2cccc(NC(=O)c3cc4cccc(O)c4oc3=O)c2)c1` . Could you help?
Result: < 4.00

* * *

study_system: procaspase-6 (Homo sapiens)
assay_name: Executioner procaspase-6 activation assay (Ac-VEID-AFC fluorogenic substrate)
run_parameters: incubation with compound for 5 h at 37° C.; 100 nM procaspase
pEC50: −log10 of the molar value.
assay_metric: pEC50

# annotated cases, reported pEC50 shown
>>> test_value("COc1cccc2cc(C(=O)Nc3cccc(-c4ccc5occc(=O)c5c4)c3)c(=O)oc12")
"5.00 to 6.30"
>>> test_value("CCOc1ncccc1-c1cccc(NC(=O)c2cc3cccc(OC(F)(F)F)c3oc2=O)c1")
"< 4.00"
>>> test_value("O=C(Nc1cccc(-c2ccc3[nH]ccc3c2)c1)c1cc2cccc(O)c2oc1=O")
"< 4.00"
>>> test_value("O=C(Nc1cccc(-c2cn3ccccc3n2)c1)c1cc2cccc(F)c2oc1=O")
"5.00 to 6.30"
>>> test_value("CCOc1ccc(-c2cccc(NC(=O)c3cc4cccc(O)c4oc3=O)c2)cc1")
"< 4.00"

Next:
Query: Hello, I am looking for reported pEC50 with procaspase-6 (Homo sapiens) for `COc1ccc(-c2cccc(NC(=O)c3cc4cccc(OC)c4oc3=O)c2)c(OC)c1` . Could you help?
Result: < 4.00

* * *

study_system: procaspase-3 (Homo sapiens, UniProt P42574)
Construct: His6 (C); made in house; host or cells: E. coli BL21(DE3)RP, pET-23b
Sequence (P42574 1-277): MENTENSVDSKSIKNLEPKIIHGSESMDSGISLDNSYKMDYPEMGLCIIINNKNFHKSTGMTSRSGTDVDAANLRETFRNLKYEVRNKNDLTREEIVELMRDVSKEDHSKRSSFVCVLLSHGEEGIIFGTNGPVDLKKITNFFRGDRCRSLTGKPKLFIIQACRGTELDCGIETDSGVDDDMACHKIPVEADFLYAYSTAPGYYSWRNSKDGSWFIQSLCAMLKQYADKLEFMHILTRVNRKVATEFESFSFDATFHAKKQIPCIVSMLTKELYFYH
assay_name: Executioner procaspase-3 activation assay (Ac-DEVD-AFC fluorogenic substrate)
Format: biochemical
run_parameters: incubation with compound for 5 h at 37° C.; 100 nM procaspase; read-out: Procaspase Activation 3
pEC50: −log10 of the molar value.
assay_metric: pEC50

>>> test_value("COc1ccc(-c2cccc(NC(=O)c3cc4cccc(OC)c4oc3=O)c2)cc1C [compound 48]")
"< 4.00"
>>> test_value("COc1ccc(OC)c(-c2cccc(NC(=O)c3cc4cccc(O)c4oc3=O)c2)c1 [compound 56]")
"< 4.00"
>>> test_value("O=C(Nc1cccc(-c2ccc3c(c2)CCO3)c1)c1cc2cccc(O)c2oc1=O [compound 74]")
"< 4.00"
>>> test_value("O=C(Nc1cccc(-c2cn3ccccc3n2)c1)c1cc2cc(O)c(O)cc2oc1=O [compound 7]")
"< 4.00"
>>> test_value("CCOc1ccc(-c2cccc(NC(=O)c3cc4cccc(OC)c4oc3=O)c2)cc1C [compound 66]")
"< 4.00"
>>> test_value("O=C(Nc1cccc(-c2cn3ccccc3n2)c1)c1cc2cc(O)ccc2oc1=O [compound 11]")
"< 4.00"
>>> test_value("COc1ccc(-c2cccc(NC(=O)c3cc4cccc(O)c4oc3=O)c2)cn1 [compound 129]")
"< 4.00"
>>> test_value("O=C(Nc1cccc(-c2ccc3c(c2)OCO3)c1)c1cc2cccc(O)c2oc1=O [compound 62]")
"< 4.00"

Query: Hello, I am looking for reported pEC50 with procaspase-3 (Homo sapiens, UniProt P42574) for COc1ccc(-c2cccc(NC(=O)c3cc4cccc(OC)c4oc3=O)c2)cn1 [compound 130] . Could you help?
Result: < 4.00

Query: Hello, I am looking for reported pEC50 with procaspase-3 (Homo sapiens, UniProt P42574) for COc1cccc2cc(C(=O)Nc3cccc(-c4cccnc4)c3)c(=O)oc12 [compound 18] . Could you help?
Result: < 4.00

Query: Hello, I am looking for reported pEC50 with procaspase-3 (Homo sapiens, UniProt P42574) for O=C(Nc1cccc(-c2ccc3nonc3c2)c1)c1cc2cccc(O)c2oc1=O [compound 159] . Could you help?
Result: < 4.00

Query: Hello, I am looking for reported pEC50 with procaspase-3 (Homo sapiens, UniProt P42574) for O=C(Nc1cccc(-c2cc(F)cc(F)c2)c1)c1cc2cccc(O)c2oc1=O [compound 177] . Could you help?
Result: < 4.00

* * *

Collected EC50 values appear next to each entry.
study_system: procaspase-3 (Homo sapiens, UniProt P42574)
Construct: His6 (C); made in house; host or cells: E. coli BL21(DE3)RP, pET-23b
assay_name: Executioner procaspase-3 activation assay (Ac-DEVD-AFC fluorogenic substrate)
Format: biochemical
run_parameters: incubation with compound for 5 h at 37° C.; 100 nM procaspase; read-out: Procaspase Activation 3

# annotated cases, reported EC50 shown
>>> test_value("O=C(Nc1cccc(-c2cn3ccccc3n2)c1)c1cc2ccc(O)c(O)c2oc1=O")
"50 to 200 µM"
>>> test_value("COc1ccc(-c2cccc(NC(=O)c3cc4cccc(O)c4oc3=O)c2)cc1OC")
"> 100 µM"

Query: Which EC50 is listed for `O=C(Nc1cccc(-c2ccncc2)c1)c1cc2cccc(O)c2oc1=O` ?
Result: 0.5 to 10 µM

Query: Which EC50 is listed for `COc1cccc2cc(C(=O)Nc3cccc(-c4cn5ccccc5n4)c3)oc12` ?
Result: 10 to 50 µM

Query: Which EC50 is listed for `COc1cccc2cc(C(=O)Nc3cccc(-c4ccc(N(C)C)nc4)c3)c(=O)oc12` ?
Result: > 100 µM

Query: Which EC50 is listed for `COc1cccc2cc(C(=O)Nc3cccc(-c4cnc5ccccc5c4)c3)c(=O)oc12` ?
Result: > 100 µM

Query: Which EC50 is listed for `O=C(Nc1cccc(-c2ccc3ccccc3c2)c1)c1cc2cccc(OC(F)(F)F)c2oc1=O` ?
Result: > 100 µM

Query: Which EC50 is listed for `COc1ncc(-c2cccc(NC(=O)c3cc4cccc(OC)c4oc3=O)c2)cn1` ?
Result: > 100 µM

* * *

study_system: procaspase-3 (Homo sapiens, UniProt P42574)
Construct: His6 (C); made in house; host or cells: E. coli BL21(DE3)RP, pET-23b
Sequence (P42574 1-277): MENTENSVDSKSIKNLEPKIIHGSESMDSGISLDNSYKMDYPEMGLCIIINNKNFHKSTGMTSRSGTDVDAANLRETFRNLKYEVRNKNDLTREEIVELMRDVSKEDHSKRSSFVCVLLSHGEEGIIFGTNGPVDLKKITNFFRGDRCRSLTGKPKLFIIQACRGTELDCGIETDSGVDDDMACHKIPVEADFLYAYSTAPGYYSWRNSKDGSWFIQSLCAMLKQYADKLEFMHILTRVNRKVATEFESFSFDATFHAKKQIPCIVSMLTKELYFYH
assay_name: Executioner procaspase-3 activation assay (Ac-DEVD-AFC fluorogenic substrate)
Assay type: biochemical
run_parameters: incubation with compound for 5 h at 37° C.; 100 nM procaspase; read-out: Procaspase Activation 3
assay_metric: EC50

# annotated cases, reported EC50 shown
>>> test_value("O=C(Nc1cccc(-c2ccc3occc(=O)c3c2)c1)c1cc2cccc(O)c2oc1=O")
"0.5 to 10 µM"
>>> test_value("O=C(Nc1cccc(-c2ccc(Oc3ccccc3)cc2)c1)c1cc2cccc(OC(F)(F)F)c2oc1=O")
"> 100 µM"
>>> test_value("COc1cccc2cc(C(=O)Nc3cccc(-c4cnn(Cc5ccccc5)c4)c3)c(=O)oc12")
"> 100 µM"
>>> test_value("O=C(Nc1cccc(-c2cn3ccccc3n2)c1)C1=Cc2cc(Cl)ccc2OC1")
"50 to 200 µM"
>>> test_value("COc1ncc(-c2cccc(NC(=O)c3cc4cccc(O)c4oc3=O)c2)cn1")
"> 100 µM"
>>> test_value("COc1ccc(-c2cccc(NC(=O)c3cc4cccc(OC(F)(F)F)c4oc3=O)c2)cc1OC")
"> 100 µM"

Query: Which EC50 is listed for `CCOc1ncccc1-c1cccc(NC(=O)c2cc3cccc(O)c3oc2=O)c1` ?
Result: 10 to 50 µM

Query: Which EC50 is listed for `COc1ccc(-c2cccc(NC(=O)c3cc4cccc(OC)c4oc3=O)c2)c(OC)c1` ?
Result: > 100 µM
